# tgt: Mu-type opioid receptor (Homo sapiens, UniProt P35372)
# Sequence (P35372 whole entry): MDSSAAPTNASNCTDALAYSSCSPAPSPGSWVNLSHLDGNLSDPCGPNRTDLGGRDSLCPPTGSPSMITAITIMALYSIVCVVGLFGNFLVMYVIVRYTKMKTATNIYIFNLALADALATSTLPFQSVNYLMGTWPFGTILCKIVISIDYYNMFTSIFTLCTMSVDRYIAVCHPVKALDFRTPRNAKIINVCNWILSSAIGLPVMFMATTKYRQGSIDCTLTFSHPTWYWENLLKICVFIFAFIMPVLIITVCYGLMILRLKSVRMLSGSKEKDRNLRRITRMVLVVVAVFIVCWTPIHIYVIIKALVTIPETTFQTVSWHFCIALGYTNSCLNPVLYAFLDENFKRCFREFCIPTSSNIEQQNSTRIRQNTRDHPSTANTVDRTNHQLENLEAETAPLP
# experimental_protocol: Binding affinity to MOR (unknown origin) assessed as inhibition constant
readout_type: Ki (µM)
One number for each entry, in µM.

For each of the compounds below, state Ki.
1. O[C@H]1[C@H](n2cnc3c(NC(C4CCCC4)C4CCCC4)nc(Cl)nc32)[C@H]2C[C@@]2(CSc2ccccc2F)[C@H]1O
2. O[C@H]1[C@H](n2cnc3c(NC(C4CCCC4)C4CCCC4)nc(Cl)nc32)[C@H]2C[C@@]2(CCl)[C@H]1O

1. 4.9
2. 5.7

* * *

# tgt: Adenosine receptor A1 (Homo sapiens)
# Sequence (P30542 whole entry): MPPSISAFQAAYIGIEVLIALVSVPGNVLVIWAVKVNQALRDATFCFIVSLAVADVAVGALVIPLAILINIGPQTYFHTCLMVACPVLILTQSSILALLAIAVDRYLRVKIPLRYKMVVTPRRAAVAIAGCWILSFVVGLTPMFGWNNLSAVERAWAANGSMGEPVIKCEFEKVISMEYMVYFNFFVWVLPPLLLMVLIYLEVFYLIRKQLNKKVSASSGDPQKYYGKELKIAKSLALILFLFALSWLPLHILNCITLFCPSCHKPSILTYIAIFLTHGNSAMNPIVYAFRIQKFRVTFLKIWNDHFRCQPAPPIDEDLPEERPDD
# experimental_protocol: Displacement of […] from human A1AR expressed in Flp-In-T-REx-293 cells assessed as inhibition constant
# Format: cell-based
readout_type: Ki (nM)
Give bare numbers, in nM.

Examples with answers:
INSERT INTO assay_data (compound_structure, readout_type, experimental_value) VALUES
  ('Nc1nc(I)nc2c1ncn2[C@H]1[C@H](O)[C@H](O)[C@]2(CCl)C[C@H]12', 'Ki', 147),
  ('CC(C)[C@@H](Nc1nc(I)nc2c1ncn2[C@H]1[C@H](O)[C@H](O)[C@]2(CO)C[C@H]12)C1CC1', 'Ki', 30.7),
  ('Ic1nc(N[C@H](C2CCC2)C2CC2)c2nc[nH]c2n1', 'Ki', 648);

For each of the compounds below, state Ki.
1. CSC[C@@]12C[C@@H]1[C@@H](n1cnc3c(NC(C4CC4)C4CC4)nc(I)nc31)[C@H](O)[C@@H]2O
2. OC[C@@]12C[C@@H]1[C@@H](n1cnc3c(N[C@H](C4CCC4)C4CC4)nc(I)nc31)[C@H](O)[C@@H]2O

1. 466
2. 42.7

For each of the compounds below, state Ki.
1. CSC[C@@]12C[C@@H]1[C@@H](n1cnc3c(N)nc(I)nc31)[C@H](O)[C@@H]2O
2. O[C@H]1[C@H](n2cnc3c(NC(C4CCCC4)C4CCCC4)nc(Cl)nc32)[C@H]2C[C@@]2(CCl)[C@H]1O
3. O[C@H]1[C@H](n2cnc3c(NC(C4CC4)C4CC4)nc(Cl)nc32)[C@H]2C[C@@]2(CF)[C@H]1O
4. CSC[C@@]12C[C@@H]1[C@@H](n1cnc3c(NC(C4CC4)C4CC4)nc(Cl)nc31)[C@H](O)[C@@H]2O
5. OC[C@H]1O[C@@H](n2cnc3c(N[C@H](C4CCC4)C4CC4)nc(I)nc32)[C@H](O)[C@@H]1O
6. OC[C@@]12C[C@@H]1[C@@H](n1cnc3c(NC(C4CC4)C4CC4)nc(I)nc31)[C@H](O)[C@@H]2O
7. OC[C@@]12C[C@@H]1[C@@H](n1cnc3c(N[C@@H](C4CCC4)C4CC4)nc(I)nc31)[C@H](O)[C@@H]2O
8. CCOC(=O)[C@@]12C[C@@H]1[C@@H](n1cnc3c(N[C@H](C4CCC4)C4CC4)nc(I)nc31)[C@H](O)[C@@H]2O

1: 1350; 2: 529; 3: 5.95; 4: 63.2; 5: 21.3; 6: 13.4; 7: 63.9; 8: 2180

For each of the compounds below, state Ki.
1. NC[C@H]1O[C@@H](n2cnc3c(N[C@H](C4CCC4)C4CC4)nc(I)nc32)[C@H](O)[C@@H]1O
2. O[C@H]1[C@H](n2cnc3c(NC(C4CCCC4)C4CCCC4)nc(Cl)nc32)[C@H]2C[C@@]2(CF)[C@H]1O

1. 147
2. 1620

* * *

# tgt: Adenosine receptor A2a (Homo sapiens) (UniProt P29274)
# Sequence (P29274 whole entry): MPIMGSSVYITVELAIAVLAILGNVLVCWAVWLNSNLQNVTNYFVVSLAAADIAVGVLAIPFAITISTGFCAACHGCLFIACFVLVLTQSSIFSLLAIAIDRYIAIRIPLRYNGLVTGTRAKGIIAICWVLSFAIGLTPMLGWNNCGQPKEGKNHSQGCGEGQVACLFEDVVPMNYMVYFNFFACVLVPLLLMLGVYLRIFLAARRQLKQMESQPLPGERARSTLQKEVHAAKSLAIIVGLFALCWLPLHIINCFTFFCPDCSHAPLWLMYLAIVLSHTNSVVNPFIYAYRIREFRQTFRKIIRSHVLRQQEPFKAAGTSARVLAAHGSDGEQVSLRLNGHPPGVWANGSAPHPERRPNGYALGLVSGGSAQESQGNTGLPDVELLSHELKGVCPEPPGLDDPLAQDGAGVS
# experimental_protocol: Displacement of […] from human A2AR expressed in HEK cells at 10 uM relative to control
# Type: cell-based
# assay_setup: filed as agonist
So basically: Activity at 60% or higher? That is t. Lower than 60%? That is f.

Solved cases (4 shown):
INSERT INTO results (compound_structure, class) VALUES
  ('O[C@H]1[C@H](n2cnc3c(NC(C4CC4)C4CC4)nc(Cl)nc32)[C@H]2C[C@@]2(CF)[C@H]1O', 'f'),
  ('OC[C@@]12C[C@@H]1[C@@H](n1cnc3c(N[C@H](C4CCC4)C4CC4)nc(I)nc31)[C@H](O)[C@@H]2O', 'f'),
  ('OC[C@@]12C[C@@H]1[C@@H](n1cnc3c(NC(C4CC4)C4CC4)nc(I)nc31)[C@H](O)[C@@H]2O', 't'),
  ('CSC[C@@]12C[C@@H]1[C@@H](n1cnc3c(NC(C4CC4)C4CC4)nc(I)nc31)[C@H](O)[C@@H]2O', 'f');

Please examine the following record next.
Is Activity for OC[C@H]1O[C@@H](n2cnc3c(N[C@H](C4CCC4)C4CC4)nc(I)nc32)[C@H](O)[C@@H]1O at or above 60%?
t

* * *

# tgt: Adenosine receptor A2a (Homo sapiens) (UniProt P29274)
# experimental_protocol: Displacement of […] from human A2AR expressed in HEK cells at 10 uM relative to control
# Assay type: cell-based
readout_type: Activity
Report as: number unit

Examples with answers:
INSERT INTO assay_data (compound_structure, tgt, experimental_value) VALUES
  ('O[C@H]1[C@H](n2cnc3c(NC(C4CCCCC4)C4CCCCC4)nc(Cl)nc32)[C@H]2C[C@@]2(CF)[C@H]1O', 'Adenosine receptor A2a (Homo sapiens) (UniProt P29274)', '-27%'),
  ('OC[C@@]12C[C@@H]1[C@@H](n1cnc3c(NC(C4CCC4)C4CCC4)nc(I)nc31)[C@H](O)[C@@H]2O', 'Adenosine receptor A2a (Homo sapiens) (UniProt P29274)', '37%');

For each of the compounds below, state Activity.
1. OC[C@@]12C[C@@H]1[C@@H](n1cnc3c(NC(C4CCCCC4)C4CCCCC4)nc(Cl)nc31)[C@H](O)[C@@H]2O
2. O[C@@H]1[C@H](O)[C@@H]2C[C@@H]2[C@H]1n1cnc2c(NC(C3CCCC3)C3CCCC3)nc(Cl)nc21

1: 7%; 2: 24%

* * *

For each of the molecules below, state its Ki.
# tgt: UniProt P28335
# Sequence (P28335 whole entry): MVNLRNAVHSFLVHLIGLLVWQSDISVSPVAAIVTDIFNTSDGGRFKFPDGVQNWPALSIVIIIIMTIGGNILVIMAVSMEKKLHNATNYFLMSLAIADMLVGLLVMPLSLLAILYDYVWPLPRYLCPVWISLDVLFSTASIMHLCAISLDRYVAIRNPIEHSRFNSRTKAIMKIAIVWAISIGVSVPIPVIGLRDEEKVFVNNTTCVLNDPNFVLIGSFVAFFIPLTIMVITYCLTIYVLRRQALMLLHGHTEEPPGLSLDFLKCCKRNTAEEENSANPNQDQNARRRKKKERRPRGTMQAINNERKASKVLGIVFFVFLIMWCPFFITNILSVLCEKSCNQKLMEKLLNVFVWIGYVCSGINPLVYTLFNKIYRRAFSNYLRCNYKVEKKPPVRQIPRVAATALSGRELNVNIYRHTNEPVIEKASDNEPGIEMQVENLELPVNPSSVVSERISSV
# experimental_protocol: Binding affinity to 5HT2C receptor (unknown origin) assessed as inhibition constant
Report as: number unit

INSERT INTO results (compound_structure, readout_type, experimental_value) VALUES
  ('CCOC(=O)[C@@]12C[C@@H]1[C@@H](n1cnc3c(NC(C4CCC4)C4CCC4)nc(Cl)nc31)[C@H](O)[C@@H]2O', 'Ki', '351 nM'),
  ('OC[C@@]12C[C@@H]1[C@@H](n1cnc3c(NC(C4CCC4)C4CCC4)ncnc31)[C@H](O)[C@@H]2O', 'Ki', '1020 nM'),
  ('O[C@H]1[C@H](n2cnc3c(NC(C4CCC4)C4CCC4)nc(Cl)nc32)[C@H]2C[C@@]2(CSc2ccccc2F)[C@H]1O', 'Ki', '1250 nM');

For each of the molecules below, state Ki.
1. O[C@H]1[C@H](n2cnc3c(NC(C4CCC4)C4CCC4)ncnc32)[C@H]2C[C@@]2(CCl)[C@H]1O
2. O[C@H]1[C@H](n2cnc3c(NC(C4CCC4)C4CCC4)nc(Cl)nc32)[C@H]2C[C@@]2(CCl)[C@H]1O
3. OC[C@@]12C[C@@H]1[C@@H](n1cnc3c(NC(C4CCC4)C4CCC4)nc(Cl)nc31)[C@H](O)[C@@H]2O

["1230 nM", "908 nM", "368 nM"]

* * *

# tgt: Adenosine receptor A2a (Homo sapiens)
# experimental_protocol: Displacement of […] from human A2AR expressed in HEK cells at 10 uM relative to control
# Assay type: cell-based
Kindly note that classification relies on Activity with these boundaries: low band = under -10%, middle band = from -10% up to 20%, high band = 20% and over

Solved cases (5 shown):
INSERT INTO measurements (compound, tgt, class) VALUES
  ('CCOC(=O)[C@@]12C[C@@H]1[C@@H](n1cnc3c(NC(C4CCCC4)C4CCCC4)nc(Cl)nc31)[C@H](O)[C@@H]2O', 'Adenosine receptor A2a (Homo sapiens)', 'low band'),
  ('CSC[C@@]12C[C@@H]1[C@@H](n1cnc3c(NC(C4CCCC4)C4CCCC4)nc(Cl)nc31)[C@H](O)[C@@H]2O', 'Adenosine receptor A2a (Homo sapiens)', 'low band'),
  ('CCOC(=O)[C@@]12C[C@@H]1[C@@H](n1cnc3c(N[C@H](C4CCC4)C4CC4)nc(I)nc31)[C@H](O)[C@@H]2O', 'Adenosine receptor A2a (Homo sapiens)', 'middle band'),
  ('CSC[C@@]12C[C@@H]1[C@@H](n1cnc3c(NC(C4CCCC4)C4CCCC4)nc(SC)nc31)[C@H](O)[C@@H]2O', 'Adenosine receptor A2a (Homo sapiens)', 'low band'),
  ('COCCN(CCOC)C(=O)[C@]12C[C@H]1[C@H](n1cnc3c(NC(C4CC4)C4CC4)nc(Cl)nc31)[C@@H](O)[C@H]2O (single isomer, unassigned)', 'Adenosine receptor A2a (Homo sapiens)', 'high band');

Any idea which band CCSC[C@@]12C[C@@H]1[C@@H](n1cnc3c(NC(C4CCCC4)C4CCCC4)nc(Cl)nc31)[C@H](O)[C@@H]2O is in?
low band

Any idea which band O[C@H]1[C@H](n2cnc3c(NC(C4CCCC4)C4CCCC4)nc(Cl)nc32)[C@H]2C[C@@]2(CCl)[C@H]1O is in?
high band

Any idea which band NC[C@H]1O[C@@H](n2cnc3c(N[C@H](C4CCC4)C4CC4)nc(I)nc32)[C@H](O)[C@@H]1O is in?
high band

Any idea which band COc1ccc(SC[C@@]23C[C@@H]2[C@@H](n2cnc4c(NC(C5CCCC5)C5CCCC5)nc(Cl)nc42)[C@H](O)[C@@H]3O)cc1OC is in?
middle band

Any idea which band O[C@H]1[C@H](n2cnc3c(NC(C4CCCCC4)C4CCCCC4)nc(Cl)nc32)[C@H]2C[C@@]2(CCl)[C@H]1O is in?
middle band

Any idea which band OC[C@@]12C[C@@H]1[C@@H](n1cnc3c(NC(C4CCCC4)C4CCCC4)nc(Cl)nc31)[C@H](O)[C@@H]2O is in?
low band

Any idea which band O[C@H]1[C@H](n2cnc3c(NC(C4CCCC4)C4CCCC4)nc(Cl)nc32)[C@H]2C[C@@]2(CF)[C@H]1O is in?
high band

Any idea which band CCCCSC[C@@]12C[C@@H]1[C@@H](n1cnc3c(NC(C4CCCC4)C4CCCC4)nc(Cl)nc31)[C@H](O)[C@@H]2O is in?
middle band
